# Tested on: S2, H2 or SC cells
# ASSAY PROTOCOL: in vitro

[
  {
    "COMPOUND": "C=CCNc1c(O)cc2c(O)c1C[C@@H](C)C[C@H](OC)[C@@H](O)[C@@H](C)C=C(C)[C@H](OC(N)=O)[C@@H](OC)C=CC=C(C)C(=O)N2",
    "ASSAYED TARGET": "S2, H2 or SC cells",
    "UNIT LABEL": "%",
    "min viability (%)": 91.4914
  },
  {
    "COMPOUND": "Cc1ccc2nc(NCCN)c3ncc(C)n3c2c1",
    "ASSAYED TARGET": "S2, H2 or SC cells",
    "UNIT LABEL": "%",
    "min viability (%)": 77.5673
  },
  {
    "COMPOUND": "CC1(C)CC(=O)c2c(C(F)(F)F)nn(-c3ccc(C(N)=O)c(NC4CCC(OC(=O)CN)CC4)c3)c2C1 (stereo not drawn)",
    "ASSAYED TARGET": "S2, H2 or SC cells",
    "UNIT LABEL": "%",
    "min viability (%)": 87.146
  }
]
